Reported values of Kv1.3 IC50, QPatch patch clamp for individual entries
experimental target: human Kv1.3 (human) (UniProt P22001)
Sequence (P22001 whole entry): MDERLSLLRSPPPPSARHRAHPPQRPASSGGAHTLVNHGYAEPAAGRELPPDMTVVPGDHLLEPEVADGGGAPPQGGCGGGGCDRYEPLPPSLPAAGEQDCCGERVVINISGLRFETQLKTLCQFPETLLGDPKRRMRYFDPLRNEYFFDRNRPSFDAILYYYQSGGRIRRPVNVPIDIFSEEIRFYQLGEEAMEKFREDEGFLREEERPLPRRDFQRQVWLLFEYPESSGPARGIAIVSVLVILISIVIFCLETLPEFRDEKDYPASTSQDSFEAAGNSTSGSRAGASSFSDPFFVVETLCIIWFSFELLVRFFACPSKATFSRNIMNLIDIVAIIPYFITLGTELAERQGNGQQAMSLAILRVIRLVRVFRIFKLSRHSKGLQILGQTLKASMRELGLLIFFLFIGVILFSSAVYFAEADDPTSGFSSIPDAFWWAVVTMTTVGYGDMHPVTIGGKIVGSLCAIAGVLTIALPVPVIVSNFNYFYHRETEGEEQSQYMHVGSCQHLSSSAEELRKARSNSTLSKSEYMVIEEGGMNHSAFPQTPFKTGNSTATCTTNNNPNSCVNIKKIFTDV
assay name: cell-based or functional assay
Report only the number, with the unit nM understood.

See these solved cases before continuing.
{"columns": ["binder", "Kv1.3 IC50, QPatch patch clamp [nM]"],
 "data": [
  ["KB_A12_KTX (antibody) VH: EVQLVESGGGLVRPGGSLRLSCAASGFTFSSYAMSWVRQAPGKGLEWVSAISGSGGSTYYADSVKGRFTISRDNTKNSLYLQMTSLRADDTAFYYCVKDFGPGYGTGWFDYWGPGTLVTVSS VL: QSVLTQPPSVSEAPRQRVTITCSGSSSNIGNNAVNWYQQLPGKAPKLLIYAAGRGVEINVKCSGSPQCLKPCKDAGMRFGKCMNRKCHCTPKANSGVSDRFSAAKSGTSASLAINGLRSEDEADYYCAAWDDSLNGYVFGTGTKLTVLGQP", 1540],
  ["KB_A12_ADWX1 short (antibody, V domains shown) VH: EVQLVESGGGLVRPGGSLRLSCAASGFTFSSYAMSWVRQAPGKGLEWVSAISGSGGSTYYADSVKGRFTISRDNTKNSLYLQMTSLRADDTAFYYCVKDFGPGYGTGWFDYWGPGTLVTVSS VL: NWYQQLPGKAPKLLIYAAGRVKCKHSRQCLKPCKDAGMRFGKCTNGKCHCTPKANSGVSDRFSAAKSGTSASLAINGLRSEDEADYYCAAWDDSLNGYVFGTGTKLTVLG", 251]
]}

Turning to the following binder.
The value of Kv1.3 IC50, QPatch patch clamp measured for the binder KB_A12_ShK (antibody, V domains shown) VH: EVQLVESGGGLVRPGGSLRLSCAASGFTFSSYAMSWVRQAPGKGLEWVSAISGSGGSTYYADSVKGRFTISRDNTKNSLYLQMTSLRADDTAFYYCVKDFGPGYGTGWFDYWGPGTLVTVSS VL: NWYQQLPGKAPKLLIYAAGRRSCIDTIPKSRCTAFQCKHSMKYRLSFCRKTCGTCANSGVSDRFSAAKSGTSASLAINGLRSEDEADYYCAAWDDSLNGYVFGTGTKLTVLG turned out to be 13

// provenance: patent US20230331827A1
